Entry source: patent US7745422B2

system: Vγ2Vδ2 T cells; experiment: gammadelta T cell stimulation (TNF-α release assay); type: cell-based, human; settings: Table 4; read-out: (3) gammadelta T cell stimulation EC50
Property: pEC50
Remember, pEC50 is on a log scale: it is -log10 of the molar concentration.

Look over these answered cases.
| Compound | Target | pEC50 |
| --- | --- | --- |
| CCCCC#Cc1ccc[n+](CC(P(=O)([O-])O)P(=O)(O)O)c1 (stereo not shown) [Compound 597] | Vγ2Vδ2 T cells | 4.24 |
| O=P([O-])(O)C(O)(C[n+]1cccc(-c2ccc(F)cc2)c1)P(=O)(O)O (stereo not shown) [Compound 462] | Vγ2Vδ2 T cells | 4.82 |
| O=P([O-])(O)C(C[n+]1cccc(C(F)(F)F)c1)P(=O)(O)O (stereo not shown) [Compound 511] | Vγ2Vδ2 T cells | 4.85 |

Attention now shifts to the item below.
Task: Would you kindly share the measured pEC50 for O=P([O-])(O)C(C[n+]1ccc(C(F)(F)F)cc1)P(=O)(O)O (stereo not shown) [Compound 485] ?
Result: 3.43

====

test system: Vγ2Vδ2 T cells; test: gammadelta T cell stimulation (TNF-α release assay); type: cell-based, human; conditions: Table 4; read-out: (3) gammadelta T cell stimulation EC50
pEC50: −log10 of the molar value.
The threshold is inclusive: pEC50 of exactly 5 counts as Satisfied; values below receive Not satisfied.

| Compound | Category label |
| --- | --- |
| COc1ccc[n+](CC(O)(P(=O)([O-])O)P(=O)(O)O)c1 (centres unmarked) | Not satisfied |
| O=P([O-])(O)C(C[n+]1ccccc1F)P(=O)(O)O (centres unmarked) | Not satisfied |
| O=P([O-])(O)C(O)(CC[n+]1ccccc1)P(=O)(O)O (centres unmarked) | Not satisfied |
| O=P([O-])(O)C(O)(C[n+]1cccc(-c2cccc(-c3ccccc3)c2)c1)P(=O)(O)O (centres unmarked) | Not satisfied |
| CCCCCCCCc1ccc[n+](CC(P(=O)([O-])O)P(=O)(O)O)c1 (centres unmarked) | Satisfied |

Task: Check the entry O=P([O-])(O)C(O)(C[n+]1cccc(O)c1)P(=O)(O)O (centres unmarked) : does pEC50 equal or exceed 5?
Result: Not satisfied

Task: Next up: Cc1cc(C)c[n+](CC(O)(P(=O)([O-])O)P(=O)(O)O)c1 (centres unmarked)
Result: Not satisfied

Task: Next up: Cc1ccc2c(ccc[n+]2CC(O)(P(=O)([O-])O)P(=O)(O)O)c1 (centres unmarked)
Result: Not satisfied

Task: Next up: CCc1ccc[n+](CC(O)(P(=O)([O-])O)P(=O)(O)O)c1 (centres unmarked)
Result: Satisfied

Task: Next up: CCCCOc1cccc(-c2ccc[n+](CC(P(=O)([O-])O)P(=O)(O)O)c2)c1 (centres unmarked)
Result: Not satisfied

Task: Next up: O=P([O-])(O)C(O)(C[n+]1cccc(Cc2ccccc2)c1)P(=O)(O)O (centres unmarked)
Result: Not satisfied

====

// values below are reported EC50
test system: Vγ2Vδ2 T cells; assay: gammadelta T cell stimulation (TNF-α release assay); type: cell-based, human; settings: Table 4; read-out: (3) gammadelta T cell stimulation EC50
Field format: number, assumed µM, no unit text.

| Molecule | Target | Result unit | EC50 |
| --- | --- | --- | --- |
| CCCCOc1ccc(-c2ccc[n+](CC(O)(P(=O)([O-])O)P(=O)(O)O)c2)cc1 (stereo not drawn) | Vγ2Vδ2 T cells | µM | 290 |
| O=P([O-])(O)C(O)(C[n+]1cccc(-c2ccc(O)cc2)c1)P(=O)(O)O (stereo not drawn) | Vγ2Vδ2 T cells | µM | 24 |
| O=Cc1ccc[n+](CC(P(=O)([O-])O)P(=O)(O)O)c1 (stereo not drawn) | Vγ2Vδ2 T cells | µM | 11 |

Task: Would you kindly share the measured EC50 for CC(C)C#Cc1ccc[n+](CC(P(=O)([O-])O)P(=O)(O)O)c1 (stereo not drawn) ?
Result: 18
